Hey, just so you know, these numbers are from ChEMBL document CHEMBL1153883.

Recorded measurements of Activity, one per entry
- System: HT-29
- protocol-text: Cytotoxicity against human HT-29 cells at 100 ug/ml after 48 hrs by neutral red assay
- Type: functional
assay-endpoint: Activity (%)

COC(=O)[C@]12CC[C@@H](C)[C@H](C)[C@H]1C1=CC[C@@H]3[C@@]4(C)C[C@@H](N)[C@H](N)C(C)(C)[C@@H]4CC[C@@]3(C)[C@]1(C)CC2 ... 62
COC(=O)[C@]12CC[C@@H](C)[C@H](C)[C@H]1C1=CC[C@@H]3[C@@]4(C)C[C@@H](O)[C@H](O)C(C)(C)[C@@H]4CC[C@@]3(C)[C@]1(C)CC2 ... 50
COC(=O)[C@@]1(C)CC[C@]2(C)CC[C@]3(C)C(=CC(=O)[C@@H]4[C@@]5(C)C[C@H](O)[C@@H](O)C(C)(C)[C@@H]5CC[C@]43C)[C@@H]2C1 ... 42
